The reader will find reported growth values listed item by item below.
- Test system: OVCAR-4 ovarian
- Protocol Description: NCI-60 one-dose screen, 48 h (100 = growth as untreated, 0 = no growth, -100 = all killed)
- Reported Conditions: 10 µM unless noted
Compounds without any hit were thinned out: in the full panel of roughly 83,000, 20% have a hit.
Attribute Measured: growth (%)

* CN1CCN(c2ccc3nc(-c4[nH]ncc4Nc4ncnc5c4OCCCN5)[nH]c3c2)CC1 | -35.2
* Brc1ccc(Cn2nnnc2-c2ccn(-c3ccccc3)n2)cc1 | 72.7
* O=C(O[C@@H]1Cc2c(O)cc(O)cc2O[C@@H]1c1cc(O)c(O)c(O)c1)c1cc(O)c2c(c1)OCO2 | 99.8
* CC(=O)OC[C@]12CC[C@@H](/C(C)=N/O)[C@@H]1[C@H]1CC[C@@H]3[C@@]4(C)CCCNC(C)(C)[C@@H]4CC[C@@]3(C)[C@]1(C)CC2 | 53.9
* O=C1CNCCN1 | 108
* C/C(=N\Nc1cc(C)c2cc(C)ccc2n1)c1ccccn1 | -83.1
* NC1(N)C=CC2=C(C=C1)C1(N)C3=C(C=CC(N)(N)C=C3)N2C2(N)C3=C(C=CC(N)(N)C=C3)N1C1=C2C=CC(N)(N)C=C1 | 90.7
* NCCn1cc(-c2nc(-c3c[nH]c4ncccc34)cs2)c2ccccc21 | 68.2
* COc1cccc(NC(=O)c2sc3nc4c(cc3c2N)C(=O)CCC4)c1 | 58.9
* Cn1cnc2c1c(=O)n(CCC(=O)Nc1ccc(F)cc1)c(=O)n2C | 109
* Cc1cccc(C)c1NC(=O)CSC(=S)N1CCN(CCOCCO)CC1 | 102
* COc1ccc(C2CC(=O)c3c(nc4ccc(Cl)cc4c3N)C2)cc1 (stereo not drawn) | 102
* COc1ccc(NC(=O)c2ccoc2COc2ccccc2)cc1 | 101
* Nc1nc2c3ccncc3cc(-c3cccc(Cl)c3)c2c2cnccc12 | 65.6
* COc1cccc(-c2nn(-c3ccccc3)cc2-c2ccnc(NCCCNS(=O)(=O)c3ccc(C(F)(F)F)cc3)c2)c1 | 33.5
* C=C(C)[C@@H]1CC[C@]2(CN)CC[C@]3(C)[C@H](CC[C@@H]4[C@@](C)(CCCN)[C@H](C(=C)C)CC[C@]43C)[C@@H]12 | 102
* C#CCN=C[C@]12CC[C@@H](C(=C)C)[C@@H]1[C@H]1CC[C@@H]3[C@@]4(C)CCC(=O)C(C)(C)[C@@H]4CC[C@@]3(C)[C@]1(C)CC2 | 53.5
* C=C(C)[C@@H]1CC[C@]2(C(=O)N3CCCNCC3)CC[C@]3(C)[C@H](CC[C@@H]4[C@@]5(C)CCC(=O)C(C)(C)[C@@H]5CC[C@]43C)[C@@H]12 | 92.3

---

- Test system: ACHN renal
- Protocol Description: NCI-60 one-dose screen, 48 h (100 = growth as untreated, 0 = no growth, -100 = all killed)
- Reported Conditions: 10 µM unless noted
The panel holds about 83,000 compounds, 20% with a hit somewhere; the sample as a whole holds those more often. The source made the active and inactive calls. Rule for the calls: active = growth percent below 10; inactive = the rest.
The reader will find reported growth values listed item by item below.
Attribute Measured: growth

* NS(=O)(=O)c1ccc(CCNC(=O)/C=C/c2ccc(Cl)cc2)cc1 | 102% (inactive)
* Cn1cc(-c2csc(-c3cn(CCNC(=O)OC(C)(C)C)c4ccc(F)cc34)n2)c2cccnc21 | 69.2% (inactive)
* Cc1ccccc1-c1nc(C(Cl)Cl)nc2cc(-c3ccccc3)nn12 | 41.1% (inactive)
* Cc1cc(C)n(Cc2cc(C(C)(C)C)cc(C(C)(C)C)c2)c(=O)c1C#N | 98.4% (inactive)
* CCN1CCN(c2nc(C)cc(N(CCCNc3ccnc4cc(Cl)ccc34)Cc3ccco3)n2)CC1 | 30.2% (inactive)
* CCN1CCN(C(=O)[C@@]2(C)CC[C@]3(C)CC[C@]4(C)C(=CC(=O)[C@@H]5[C@@]6(C)CC[C@H](OCCC#N)C(C)(C)[C@@H]6CC[C@]54C)[C@@H]3C2)CC1 | 98.3% (inactive)
* CC(=O)O[C@H]1CC[C@@]2(C)C(=CC[C@@H]3[C@@H]2CC[C@]2(C)C(=O)N(O)C(=O)C[C@@H]32)C1 | 89.3% (inactive)
* COc1cc2nc(Cl)nc(Nc3cccc(C(=O)/C=C/c4ccccc4)c3)c2cc1OC | 13.7% (inactive)
